All figures here come from patent US10167257B2.

Target: IDO (SKOV-3 cells) (Homo sapiens, UniProt P14902)
Construct: This assay utilised cancer cells which expressed either TDO or IDO; host or cells: SKOV-3 ovary adenocarcinoma cells, IFNγ-induced
Sequence (P14902 whole entry): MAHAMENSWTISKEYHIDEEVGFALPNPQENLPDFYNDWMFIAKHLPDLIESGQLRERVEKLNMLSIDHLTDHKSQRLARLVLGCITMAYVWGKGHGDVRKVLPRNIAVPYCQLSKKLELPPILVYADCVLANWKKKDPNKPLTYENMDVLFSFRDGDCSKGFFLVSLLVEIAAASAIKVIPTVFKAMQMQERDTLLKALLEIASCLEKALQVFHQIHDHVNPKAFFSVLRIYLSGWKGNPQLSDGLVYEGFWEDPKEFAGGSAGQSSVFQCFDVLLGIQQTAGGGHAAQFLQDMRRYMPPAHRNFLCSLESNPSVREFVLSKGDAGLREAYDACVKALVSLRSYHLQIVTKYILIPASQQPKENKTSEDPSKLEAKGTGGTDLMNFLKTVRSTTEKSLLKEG
Test: IDO cell-based assay (SKOV-3, IFNγ-induced), kynurenine production
Conditions: SKOV-3 ovary adenocarcinoma cells, IFNγ 500 ng/ml, 500 μM L-Trp, 48 h, kynurenine by absorbance at 490 nm
Attribute Measured: IDO cellular assay (SKOV3) pIC50

[[record]]
molecule = "CC(NC(=O)c1cc2cc(Cl)ccc2[nH]1)c1ccc(S(C)(=O)=O)cc1 (stereo not drawn)"
result = "+++ (+++ = pIC50 ≥5.50)"

[[record]]
molecule = "O=C(NCc1ccc(Cl)cc1)c1cc2ccccc2[nH]1"
result = "+++ (+++ = pIC50 ≥5.50)"

[[record]]
molecule = "Cn1cc(C2(NC(=O)c3cc4cc(C#N)ccc4[nH]3)CC2)cn1"
result = "+++ (+++ = pIC50 ≥5.50)"

